Test system: SBK1
Applied conditions: concentration: 1 μM, replicates: in singlicate; n = 1;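 further: KINOMEscan kinase panel screen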
Assignment: determine reported %Inh for the given compounds.
Express it in %; write the number only.

Request: Entry under review: CC(C)(C)c1ccc2nccc(Nc3cccc(O)c3)c2c1 . Reported %Inh?
Result: 0

Request: And then c1ccc(Oc2ccc(Nc3ccnc4cc(-c5ccc(CNCCN6CCOCC6)o5)ccc34)cc2)nc1 , what is it?
Result: 8

Request: # iterate: c1ccc(-c2cnc3nccnn23)cc1
Result: 5

Request: Can you check Cl.Cl.NCC(NCc1ccc(-c2ccnc3[nH]ccc23)s1)c1ccccc1 (stereo not drawn) next?
Result: 57

Request: Next: Cc1ccc(C(=O)Nc2ccc(Nc3ccnc4cc(-c5nccs5)ccc34)cc2O)cc1.Cl
Result: 6

Request: COC(=O)Nc1nc2cc(Oc3ccc(NC(=O)Nc4cc(C(F)(F)F)ccc4F)cn3)ccc2[nH]1.Cl.Cl ?
Result: 0

Request: And what about the compound O=C(Nc1cccc(-c2nn3ccccc3c2-c2ccnc(Nc3cccc(F)c3)n2)c1)c1c(F)ccc(F)c1Cl ?
Result: 12

Request: Input O=C(Nc1cccc(-c2nn3ncccc3c2-c2ccnc(Nc3ccccc3)n2)c1)c1c(F)cccc1F
Result: 13

Request: Consider next the compound CCn1c(-c2nonc2N)nc2c(C#CC(C)(C)O)ncc(OCCCCN)c21.O=C(O)C(F)(F)F.O=C(O)C(F)(F)F in the same way.
Result: 44

Request: Quick one: Cl.Cl.NCC(NC(=O)c1cc(-c2ccccc2)c(-c2ccnc3[nH]ccc23)s1)c1ccccc1 (stereo not drawn)
Result: 11

Request: And what about the compound Cl.c1ccc(-c2ccc3c(Nc4ccc5[nH]ncc5c4)ccnc3c2)nc1 ?
Result: 0

Request: Repeat with Cc1ccc(S(=O)(=O)Nc2ccc(Nc3nccc(Nc4cccc5[nH]ncc45)n3)cc2)cc1
Result: 26

Request: Please answer likewise for CCCCc1nn2ncccc2c1-c1ccnc(Nc2ccc(N3CCN(C)CC3)cc2)n1
Result: 30

Request: What would you report for CNC(=O)c1ccccc1Nc1nc(Nc2ccc(N3CCOCC3)cc2)ncc1Cl.Cl ?
Result: 90.5

Request: Repeat with C[C@@H]1CC[C@@H](C(=O)Nc2ccccc2)CN1c1cc(-c2ccc3c(N)n[nH]c3c2)nc(N)n1
Result: 26

Request: Moving on to COCCOCCOc1cc2ncc3c4ccc(C#N)cc4[nH]c3c2cc1OC
Result: 81

Request: Repeat for the following compound: FC(F)(F)c1ccc(/C=C/c2cncnc2Nc2ccc3[nH]c(Cc4ccccc4)nc3c2)cc1
Result: 0

Request: Please answer likewise for O=C(Nc1n[nH]c2nc(-c3ccc(O)cc3)ccc12)C1CC1
Result: 0

Request: Record: COc1cccc(C(=O)Nc2cccc(Oc3ccc4nc(NC(=O)C5CC5)cn4n3)c2)c1
Result: 0

Request: Please give the result for CN1CCN(Cc2cccc(-c3ccc4c(Nc5ccc(Oc6ccccc6)cc5)ccnc4c3)c2)CC1 too.
Result: 11

Request: What do you have for CCn1c(-c2nonc2N)nc2c(C#CC(C)(C)O)nc(OC[C@H](N)c3ccccc3)cc21 ?
Result: 0

* * *

System: CDKL3
Applied conditions: concentration: 1 μM, replicates: in singlicate; n = 1
Measured quantity: %Inh (%)
Form entry: value (%) — number only.

Request: # query: %Inh of entry COc1cc(Nc2nccc(-c3c(-c4cccc(NC(=O)c5c(F)cccc5F)c4)nn4ncccc34)n2)cc(OC)c1OC [GSK327238]
Result: 62

Request: Quick one: Cc1ccc(S(=O)(=O)Nc2ccc(Nc3nccc(Nc4cccc5[nH]ncc45)n3)cc2)cc1 [GSK581271]
Result: 0

Request: Here is the next compound: O=C(Nc1cccc(-c2nn3ncccc3c2-c2ccnc(Nc3ccccc3)n2)c1)c1c(F)cccc1F [GSK198271]
Result: 0

Request: Entry COc1cccc(-c2ccc3c(NC(=O)C4CC4)n[nH]c3n2)c1 [SB-710903] please
Result: 0

Request: How about COC(=O)Nc1nc2ccc(Oc3ccc(NC(=O)Nc4cc(C(F)(F)F)ccc4F)cc3)cc2n1C.Cl [GW692089] ?
Result: 0

Request: Please answer likewise for CCn1c(-c2nonc2N)nc2c(C#CC(C)(C)O)nc(OC[C@H](N)c3ccccc3)cc21 [GSK943949]
Result: 0

Request: Okay, and COc1cccc(C2=C(Nc3ccc(Cl)c(C(=O)O)c3)C(=O)NC2=O)c1 [SB-390769] ?
Result: 100

Request: Now give it for CCS(=O)(=O)c1ccc(OC)c(Nc2nccc(-c3c(-c4cccc(NC(=O)c5c(F)cccc5F)c4)nn4ncccc34)n2)c1 [GSK326180] too.
Result: 0

Request: # repeat for CN(C)Cc1ccc(-c2ccc3c(Nc4ccc(Oc5ccccn5)cc4)ccnc3c2)o1 [GW567148]
Result: 0

Request: How about this compound: COc1cc2c(cc1OCCN1CCNCC1)ncc1c3ccc(C#N)cc3[nH]c21
Result: 10

Request: Now try CNC(=O)c1ccccc1Nc1nc(Nc2ccc(N3CCOCC3)cc2)ncc1Cl.Cl [GSK1576028] .
Result: 0

Request: Same read-out for Cl.Cl.NCC(NCc1ccc(-c2ccnc3[nH]ccc23)s1)c1ccccc1 (stereo not shown) [GSK1321565] ?
Result: 0

Request: Repeat for the following compound: Cl.c1ccc(-c2ccc3c(Nc4ccc5[nH]ccc5c4)ccnc3c2)nc1 [GW440138]
Result: 0

Request: Can you check O=C(Nc1cccc(-c2nn3ccccc3c2-c2ccnc(Nc3cccc(C(F)(F)F)c3)n2)c1)c1c(F)cccc1F [GSK292658] next?
Result: 0

Request: Let us now turn to CN(C)S(=O)(=O)c1cc(-c2ccc3nccc(-c4cccc(S(N)(=O)=O)c4)c3c2)cnc1N [GSK1669921]
Result: 0

Request: Next compound: Cn1cc(-c2ccc3c(c2)CCN3C(=O)Cc2cccc(Cl)c2)c2c(N)ncnc21 [GSK2606590]
Result: 0

* * *

Tested on: DDR2
Applied conditions: concentration: 1 μM, replicates: in singlicate; n = 1
Measured quantity: %Inh (%)
The figure you give is taken to be in %; do not add the unit.

Request: Observed %Inh on DDR2 for C[C@@H](Oc1cc(-n2cnc3cc(-c4ccnc(NCCS(C)(=O)=O)c4)ccc32)sc1C(N)=O)c1ccccc1Cl [GSK907232] , please.
Result: 0

Request: Same read-out for Cl.Cl.NCC(NC(=O)c1cc(-c2ccccc2)c(-c2ccnc3[nH]ccc23)s1)c1ccccc1 (centres unmarked) [GSK1321561] ?
Result: 76

Request: Next compound up: CSc1cccc2c(-c3ccncn3)c(-c3ccc(F)cc3)nn12 [GW514786]
Result: 63

Request: Next: Fc1ccc(-c2ncn(C3CCNCC3)c2-c2ccnc(Oc3ccc(-c4ccccc4)cc3)n2)cc1 [SB-245391]
Result: 10

Request: Here is the next compound: Cc1ccc(C)c(NC(=O)NC2CCN(c3ccnc(Nc4ccc(F)cc4)n3)C2)c1 (centres unmarked) [GSK1379720]
Result: 25

Request: Queued: Cl.NC(=O)c1cccc(Nc2nccc(Nc3ccc(Oc4c(Cl)cccc4Cl)c(Cl)c3)n2)c1 [GW659009]
Result: 0

Request: Query FC(F)(F)c1ccc(/C=C/c2cncnc2Nc2ccc3[nH]c(Cc4ccccc4)nc3c2)cc1 [GW709199] next
Result: 36

Request: Then what about the compound COc1ccc(-c2coc3ccc(-c4nnc(SCc5ccc(OC)c(C(F)(F)F)c5)o4)cc23)cc1 ?
Result: 0

* * *

Test system: PRKCD
Applied conditions: concentration: 1 μM, replicates: in singlicate; n = 1
Can you tell me %Inh for the items I'm about to list?
Give the number first and the unit second.

Request: Notebook: pull reported %Inh for PRKCD, entry Cn1cc(-c2[nH]c3cc(NC(=O)[C@H](N)C4CCCCC4)cc4c3c2C=NNC4=O)cn1
Result: 45%

Request: Also check COc1ccc(Nc2nccc(N3CCC(NC(=O)Nc4cccc(OC)c4)C3)n2)cc1 (stereo not shown)
Result: 1%

Request: Would you kindly repeat that for Cn1cc(-c2ccc3c(c2)CCN3C(=O)Cc2cccc(Cl)c2)c2c(N)ncnc21 ?
Result: 15%

Request: Continue with C[C@@H](Oc1cc(-n2cnc3cc(-c4ccnc(NCCS(C)(=O)=O)c4)ccc32)sc1C(N)=O)c1ccccc1Cl
Result: 11%

* * *

System: CSNK1E
Applied conditions: concentration: 1 μM, replicates: in singlicate; n = 1
Param threshold (50%) applies to %Inh; output YES when value >= threshold, NO when value < threshold.

Request: Does the reported %Inh for Cc1cccc(Nc2nc(N[C@H]3CCNC3)ncc2C(N)=O)c1.Cl fall at or above the 50% mark?
Result: YES

Request: Please do the same for c1ccc(-c2n[nH]cc2Nc2ccnc3ccccc23)nc1 as well.
Result: YES

Request: Would you kindly repeat that for CN(c1ccc(NC(=O)Nc2cc(C(F)(F)F)ccc2F)cc1)c1ccnc(Nc2ccc(S(N)(=O)=O)cc2)n1 ?
Result: NO

Request: Try this compound next: CN(C)S(=O)(=O)c1cc(-c2ccc3nccc(-c4cccc(S(N)(=O)=O)c4)c3c2)cnc1N
Result: NO

Request: And then CN1CCN(Cc2cccc(-c3ccc4c(Nc5ccc(Oc6ccccc6)cc5)ccnc4c3)c2)CC1 , what is it?
Result: NO

Request: What would you report for CCn1c(-c2nonc2N)nc2c(C#CC(C)(C)O)ncc(OCCCCN)c21.O=C(O)C(F)(F)F.O=C(O)C(F)(F)F ?
Result: NO

Request: Now the same for O=C(Nc1cccc(-c2nn3ccccc3c2-c2ccnc(Nc3cccc(C(F)(F)F)c3)n2)c1)c1c(F)cccc1F
Result: NO

Request: Another compound to look at: CCCCc1nn2ncccc2c1-c1ccnc(Nc2ccc(N3CCN(C)CC3)cc2)n1
Result: YES
